assayedSystem: PI3K beta (Homo sapiens, UniProt P42338)
Construct: for the full-length p110-b subunit are generated and fused by overlapping PCR; His tag (C); made in house; host or cells: baculovirus BV949; Tn5 (Trichoplusia ni) or TiniPro insect cells
Sequence (P42338 with tags, fused parts or gaps limits assumed): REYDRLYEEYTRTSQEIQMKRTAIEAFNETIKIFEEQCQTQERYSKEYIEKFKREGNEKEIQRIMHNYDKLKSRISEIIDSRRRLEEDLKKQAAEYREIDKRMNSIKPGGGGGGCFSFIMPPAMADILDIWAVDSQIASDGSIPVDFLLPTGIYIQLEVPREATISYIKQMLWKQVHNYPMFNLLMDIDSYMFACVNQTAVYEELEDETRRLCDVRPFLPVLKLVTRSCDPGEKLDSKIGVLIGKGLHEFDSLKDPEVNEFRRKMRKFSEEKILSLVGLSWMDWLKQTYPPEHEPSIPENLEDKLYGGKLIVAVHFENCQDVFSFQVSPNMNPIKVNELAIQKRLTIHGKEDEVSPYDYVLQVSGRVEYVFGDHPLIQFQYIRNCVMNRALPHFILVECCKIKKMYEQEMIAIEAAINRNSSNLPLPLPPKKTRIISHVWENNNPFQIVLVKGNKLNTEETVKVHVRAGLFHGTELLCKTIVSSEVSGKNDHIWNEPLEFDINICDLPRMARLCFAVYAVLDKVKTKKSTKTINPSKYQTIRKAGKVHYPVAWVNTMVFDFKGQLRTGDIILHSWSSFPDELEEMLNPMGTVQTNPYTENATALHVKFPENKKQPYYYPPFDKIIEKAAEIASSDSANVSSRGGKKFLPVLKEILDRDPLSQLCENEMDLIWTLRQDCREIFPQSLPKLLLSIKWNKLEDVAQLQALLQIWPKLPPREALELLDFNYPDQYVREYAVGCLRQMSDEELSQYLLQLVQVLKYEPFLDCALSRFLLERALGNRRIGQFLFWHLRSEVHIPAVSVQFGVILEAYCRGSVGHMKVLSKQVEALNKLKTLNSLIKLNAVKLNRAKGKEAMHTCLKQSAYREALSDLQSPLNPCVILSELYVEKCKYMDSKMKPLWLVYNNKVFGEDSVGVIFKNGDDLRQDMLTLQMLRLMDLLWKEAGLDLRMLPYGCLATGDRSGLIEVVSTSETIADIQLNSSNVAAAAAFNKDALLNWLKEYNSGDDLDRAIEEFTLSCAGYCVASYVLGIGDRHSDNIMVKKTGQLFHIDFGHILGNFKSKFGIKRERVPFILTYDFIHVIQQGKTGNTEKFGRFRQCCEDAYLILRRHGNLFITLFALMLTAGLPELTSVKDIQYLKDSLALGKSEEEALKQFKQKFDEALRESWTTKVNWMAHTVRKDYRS
methodNotes: PI3K beta kinase assay (Kinase-Glo luminescence)
Format: biochemical
conditionDescription: read-out: EPK_PI3Kbeta/IC50
pIC50: −log10 of the molar value.
measurementKind: pIC50

As a guide, the following entries are already answered.
compound	pIC50
Cc1cc(F)ncc1-n1c(=O)n(C)c2cnc3ccc(-c4cnc(N)c(C(F)(F)F)c4)cc3c21 [Example 16.1]	7.33
CCNc1ncc(-c2ccc3ncc4c(c3c2)n(-c2ccc(N3CC(O)C3)nc2C)c(=O)n4C)cn1 [Example 29.7]	6.47
COc1cc(-c2ccc3ncc4c(c3c2)n(-c2ccc(N3CC(F)(F)C(F)(F)C3)nc2C)c(=O)n4C)cnc1CO [Example 35.3]	7.31
CNc1ncc(-c2ccc3ncc4c(c3c2)n(-c2ccc(N3CC(F)(F)C3)nc2C)c(=O)n4C)cn1 [Example 24.1]	6.00
COCCOc1ccc(-n2c(=O)n(C)c3cnc4ccc(-c5cncc(N6CCC6)c5)cc4c32)c(C)n1 [Example 22.2]	6.13

1. CCOc1ccc(-c2ccc3ncc4c(c3c2)n(-c2ccc(N3CCC(O)C3)nc2C)c(=O)n4C)cn1 (centres unmarked) [Example 27.4]
2. Cc1ccc(-n2c(=O)n(C)c3cnc4ccc(-c5cnc(N)c(C(F)(F)F)c5)cc4c32)c(C)n1 [Example 14.5]
3. CNc1ncc(-c2ccc3ncc4c(c3c2)n(-c2ccc(N3CC(O)C3)nc2C)c(=O)n4C)cc1C(F)(F)F [Example 29.4]
4. Cc1nc(N(C)C)ccc1-n1c(=O)n(C)c2cnc3ccc(-c4cncc(N)c4)cc3c21 [Example 19.5]
5. CNc1ncc(-c2ccc3ncc4c(c3c2)n(-c2ccc(F)nc2C)c(=O)n4C)cc1C(F)(F)F [Example 7.13]
Ask | Order the items by recorded pIC50; the first position goes to the largest value. Please respond by ranking the labels in the order requested.
Reply | 2, 5, 3, 4, 1

* * *

# IC50 values compiled below
Tested on: S6 Ribosomal Protein phosphorylation Ser235/236 in TSC1 null mouse embryo fibroblast (MEF) cells
methodNotes: Reverse protein array, S6 Ribosomal Protein phosphorylation in TSC1 null MEF cells
Type: cell-based
conditionDescription: 1 h, TSC1-/- MEFs, 60 minutes, read-out: p-S6 IC50
Reply with just the number (in nM).

As a guide, the following entries are already answered.
chemicalString	numericResult
Cc1nc(N2CC(F)(F)C2)ccc1-n1c(=O)n(C)c2cnc3ccc(-c4cncc(C(C)(C)O)c4)cc3c21	1
Cc1nc(N2CC[C@@H](O)C2)ccc1-n1c(=O)n(C)c2cnc3ccc(-c4cncc(C(C)(C)C#N)c4)cc3c21	2
CCNc1cc(-c2ccc3ncc4c(c3c2)n(-c2cccnc2C)c(=O)n4C)cnc1CO	21
COCC(=O)Nc1ccc(-n2c(=O)n(C)c3cnc4ccc(-c5cncc(N)c5)cc4c32)c(C)n1	32

// moving on: another record for IC50
Ask | For the compound shown here, COCCN(C)c1ccc(-n2c(=O)n(C)c3cnc4ccc(-c5cnc6c(ccn6C)c5)cc4c32)c(C)n1 , give the reported IC50.
Reply | 2

* * *

# solubility thermodynamic values compiled below
methodNotes: High-throughput equilibrium solubility at pH 6.8
Type: physicochemical
conditionDescription: pH 6.8, aqueous buffer, thermodynamic from solid; read-out: HT-Eq Sol/pH 6.8

As a guide, the following entries are already answered.
compound	result
COc1nc(N2CCNCC2)ccc1-n1c(=O)n(C)c2cnc3ccc(-c4cnc(N(C)C)nc4)cc3c21 [Example 9.4]	> 512 µg/mL
Cc1cccnc1-n1c(=O)n(C)c2cnc3ccc(-c4ccc(CO)nc4)cc3c21 [Example 3.9]	> 397 µg/mL
Cc1cccnc1-n1c(=O)n(C)c2cnc3ccc(-c4ccc(OCCCN(C)C)nc4)cc3c21 [Example 3.7]	> 469 µg/mL

Ask | For the compound shown here, COc1cc(-c2ccc3ncc4c(c3c2)n(-c2cccnc2C)c(=O)n4C)cnc1C(OC)OC [Example 2.27] , give the reported solubility thermodynamic.
Reply | > 472 µg/mL
